FYI, the data here is from patent US7842294B2.

test system: peptide epitope-specific interferon-γ releasing effector cells in PBL; test: IFN-γ ELISPOT on PBL stimulated once in vitro with peptide; format: cell-based, human; conditions: 12 healthy HLA-A2 positive individuals
Ends that are not written are not given here.
reportedProperty: healthy individuals with CTL response

>>> endpointvalue("PLFDFSWLSL [bcl208]")
"one"
